test: Microsomal stability, human liver microsomes; format: in vitro ADME; details: human, microsomes, pH 7.4
Classification field: 1 = half-life at 1 μM at or over 1 h; 0 = half-life at 1 μM under 1 h.

INSERT INTO results (molecular_string, answer_label) VALUES
  ('COc1ccnc(CNc2cc(-c3ccccc3)nc3c(-c4ccc(F)cc4)cnn23)c1', 1),
  ('Fc1ccc(-c2cnn3c(NCc4ccccn4)cc(-c4ccc(OC(F)(F)F)cc4)nc23)cc1', 1),
  ('Fc1ccc(-c2cnn3c(NCc4ccc(F)cn4)cc(-c4ccccc4)nc23)cc1', 1),
  ('COc1ccc(-c2cc(NCc3ccccn3)n3ncc(-c4ccc(F)cc4)c3n2)cc1', 1),
  ('Fc1ccc(-c2cnn3c(NCc4ccccn4)cc(-c4ccoc4)nc23)cc1', 0),
  ('Fc1ccc(-c2cnn3c(NCc4ccc(Cl)cn4)cc(-c4ccccc4)nc23)cc1', 1),
  ('Fc1ccc(-c2cnn3c(NCc4ccccn4)cc(-c4cccs4)nc23)cc1', 0),
  ('Fc1ccc(-c2cnn3c(NCc4ccccn4)cc(C4=CCCC4)nc23)cc1', 0),
  ('Fc1ccc(-c2cnn3c(NCc4ccccn4)cc(-c4ccccc4F)nc23)cc1', 1),
  ('COc1ccc(-c2cnn3c(NCc4ccccn4)cc(-c4ccccc4)nc23)cc1', 1),
  ('CC(C)(C)c1ccc(-c2cc(NCc3ccccn3)n3ncc(-c4ccc(F)cc4)c3n2)cc1', 1),
  ('Fc1ccc(-c2cnn3c(NCc4ccccn4)cc(C4CC4)nc23)cc1', 0),
  ('CC(C)c1ccc(-c2cc(NCc3ccccn3)n3ncc(-c4ccc(F)cc4)c3n2)cc1', 1),
  ('Fc1ccc(-c2cnn3c(NCc4ccccn4)cc(-c4ccsc4)nc23)cc1', 0),
  ('Fc1ccc(-c2cnn3c(NCc4ccccn4)cc(-c4ccccc4)nc23)cc1', 1),
  ('CN(C)CC#Cc1ccc(CNc2cc(-c3ccccc3)nc3c(-c4ccc(F)cc4)cnn23)nc1', 1),
  ('Fc1ccc(-c2cnn3c(NCc4cc(N5CCCCC5)ccn4)cc(-c4ccccc4)nc23)cc1', 1);

---

test system: Mycobacterium tuberculosis (strain H37Rv); test: MABA minimum inhibitory concentration assay (aerobic/replicating); assay type: cell-based; details: Mycobacterium tuberculosis; M.tb H37Rv, aerobic/replicating; 90% inhibition of growth
MIC90 strictly less than 1 µg/mL = 1. Otherwise -1.

INSERT INTO assay_data (molecular_string, answer_label) VALUES
  ('Fc1ccc(-c2cnn3c(NCc4ccccn4)cc(-c4ccoc4)nc23)cc1', 1),
  ('Fc1ccc(-c2cnn3c(NCc4cc(N5CCOCC5)ccn4)cc(-c4ccccc4)nc23)cc1', 1),
  ('Fc1ccc(-c2cnn3c(NCc4ccccn4)ccnc23)cc1', 1),
  ('Fc1ccc(-c2cnn3c(NCc4cccc(Br)n4)cc(-c4ccccc4)nc23)cc1', -1),
  ('COc1cccc(CNc2cc(-c3ccccc3)nc3c(-c4ccc(F)cc4)cnn23)n1', -1),
  ('CCc1cc(NCc2ccccn2)n2ncc(-c3ccc(F)cc3)c2n1', -1),
  ('Fc1ccc(-c2cnn3c(NCc4ccc(F)cn4)cc(-c4ccccc4)nc23)cc1', -1),
  ('CC(C)c1ccc(-c2cc(NCc3ccccn3)n3ncc(-c4ccc(F)cc4)c3n2)cc1', -1);

---

test: Microsomal stability, mouse liver microsomes; format: in vitro ADME; details: CD-1, pH 7.4; mouse liver microsomes; read-out: MLM Clint(mic)
reported metric: microsomal CLint at 1 μM (µL/min/mg)

INSERT INTO results (molecular_string, relation_symbol, result) VALUES
  ('Cc1ccnc(CNc2cc(-c3ccccc3)nc3c(-c4ccc(F)cc4)cnn23)c1', '<', 9.6),
  ('Fc1ccc(-c2cnn3c(NCc4ccccn4)cc(-c4ccoc4)nc23)cc1', '=', 144),
  ('Fc1ccc(-c2cnn3c(NCc4ccccn4)cc(C4=CCCCC4)nc23)cc1', '=', 30),
  ('Fc1ccc(-c2cnn3c(NCc4ccccn4)cc(C4CC4)nc23)cc1', '=', 107),
  ('Fc1ccc(-c2cnn3c(NCc4ccc(F)cn4)cc(-c4ccccc4)nc23)cc1', '=', 12.7),
  ('COc1ccc(-c2cnn3c(NCc4ccccn4)cc(-c4ccccc4)nc23)cc1', '=', 23),
  ('Fc1ccc(-c2cnn3c(NCc4ccc(Cl)cn4)cc(-c4ccccc4)nc23)cc1', '<', 9.6),
  ('COc1ccnc(CNc2cc(-c3ccccc3)nc3c(-c4ccc(F)cc4)cnn23)c1', '<', 9.6);

---

Let's look at some compounds and their measured melting point.
reported metric: melting point

INSERT INTO results (molecular_string, result) VALUES
  ('Fc1ccc(-c2cnn3c(NCc4cc(N5CCOCC5)ccn4)cc(-c4ccccc4)nc23)cc1', '208 °C'),
  ('COc1ccc(CNc2cc(-c3ccccc3)nc3c(-c4ccc(F)cc4)cnn23)nc1', '212 to 214 °C'),
  ('Cc1cccc(CNc2cc(-c3ccccc3)nc3c(-c4ccc(F)cc4)cnn23)n1', '177 to 180 °C'),
  ('Fc1ccc(-c2cnn3c(NCc4cc(Cl)ccn4)cc(-c4ccccc4)nc23)cc1', '220 to 222 °C'),
  ('COc1cccc(-c2cnn3c(NCc4ccccn4)cc(-c4ccccc4)nc23)c1', '122 to 124 °C'),
  ('CN1CCN(c2ccnc(CNc3cc(-c4ccccc4)nc4c(-c5ccc(F)cc5)cnn34)c2)CC1', '203 to 205 °C'),
  ('Fc1cccc(-c2cnn3c(NCc4ccccn4)cc(-c4ccccc4)nc23)c1', '170 to 172 °C'),
  ('Fc1ccc(-c2cnn3c(NCc4ccc(F)cn4)cc(-c4ccccc4)nc23)cc1', '118 to 120 °C'),
  ('Fc1ccc(-c2cnn3c(NCc4ccc(N5CCCCC5)cn4)cc(-c4ccccc4)nc23)cc1', '179 to 182 °C'),
  ('Cc1ccc(-c2cnn3c(NCc4ccccn4)cc(-c4ccccc4)nc23)cc1', '172 to 174 °C'),
  ('Fc1ccccc1-c1cnn2c(NCc3ccccn3)cc(-c3ccccc3)nc12', '176 to 178 °C'),
  ('FC(F)(F)c1cccc(-c2cnn3c(NCc4ccccn4)cc(-c4ccccc4)nc23)c1', '156 to 158 °C'),
  ('CN(C)CCN(C)c1ccnc(CNc2cc(-c3ccccc3)nc3c(-c4ccc(F)cc4)cnn23)c1', '158 to 160 °C'),
  ('COc1ccccc1-c1cnn2c(NCc3ccccn3)cc(-c3ccccc3)nc12', '169 to 171 °C'),
  ('Cc1ccnc(CNc2cc(-c3ccccc3)nc3c(-c4ccc(F)cc4)cnn23)c1', '157 to 159 °C'),
  ('FC(F)(F)c1ccccc1-c1cnn2c(NCc3ccccn3)cc(-c3ccccc3)nc12', '166 to 168 °C'),
  ('Fc1ccc(-c2cnn3c(NCc4ncccc4F)cc(-c4ccccc4)nc23)cc1', '165 to 168 °C'),
  ('Fc1ccc(-c2cnn3c(NCc4cccc(F)n4)cc(-c4ccccc4)nc23)cc1', '196 to 198 °C'),
  ('N#Cc1cccnc1CNc1cc(-c2ccccc2)nc2c(-c3ccc(F)cc3)cnn12', '241 to 244 °C'),
  ('N#Cc1ccnc(CNc2cc(-c3ccccc3)nc3c(-c4ccc(F)cc4)cnn23)c1', '233 to 236 °C'),
  ('FC(F)(F)c1ccc(-c2cnn3c(NCc4ccccn4)cc(-c4ccccc4)nc23)cc1', '188 to 190 °C'),
  ('Fc1ccc(-c2cnn3c(NCc4ccc(Cl)cn4)cc(-c4ccccc4)nc23)cc1', '139 to 141 °C'),
  ('COc1cccc(CNc2cc(-c3ccccc3)nc3c(-c4ccc(F)cc4)cnn23)n1', '163 to 165 °C'),
  ('Fc1ccc(-c2cnn3c(NCc4cccc(Br)n4)cc(-c4ccccc4)nc23)cc1', '160 to 161 °C'),
  ('Fc1ccc(-c2cnn3c(NCc4cccc(N5CCCCC5)n4)cc(-c4ccccc4)nc23)cc1', '185 to 187 °C'),
  ('CCc1cc(NCc2ccccn2)n2ncc(-c3ccc(F)cc3)c2n1', '137 to 138 °C'),
  ('CN(C)c1cccnc1CNc1cc(-c2ccccc2)nc2c(-c3ccc(F)cc3)cnn12', '167 to 170 °C');

---

test system: Mycobacterium tuberculosis (strain H37Rv); assay: MABA minimum inhibitory concentration assay (aerobic/replicating); assay type: cell-based; conditions: Mycobacterium tuberculosis; M.tb H37Rv, aerobic/replicating; 90% inhibition of growth
Let's look at some compounds and their measured MIC90.
reported metric: MIC90 (µg/mL)

INSERT INTO measurements (molecular_string, reported_metric, relation_symbol, result) VALUES
  ('CC(C)(C)c1ccc(-c2cc(NCc3ccccn3)n3ncc(-c4ccc(F)cc4)c3n2)cc1', 'MIC90', '=', 1.7),
  ('FC(F)(F)c1ccc(-c2cnn3c(NCc4ccccn4)cc(-c4ccccc4)nc23)cc1', 'MIC90', '>', 32),
  ('COc1ccccc1-c1cc(NCc2ccccn2)n2ncc(-c3ccc(F)cc3)c2n1', 'MIC90', '=', 13.3),
  ('COc1ccc(-c2cc(NCc3ccccn3)n3ncc(-c4ccc(F)cc4)c3n2)cc1', 'MIC90', '=', 1.5),
  ('Fc1ccc(-c2cnn3c(NCc4ccc(Cl)cn4)cc(-c4ccccc4)nc23)cc1', 'MIC90', '=', 4.9),
  ('N#Cc1ccnc(CNc2cc(-c3ccccc3)nc3c(-c4ccc(F)cc4)cnn23)c1', 'MIC90', '>', 32);
